- system: recombinant human PILRA (human, UniProt Q9UKJ1 20-197)
- Sequence (Q9UKJ1 20-197 limits assumed): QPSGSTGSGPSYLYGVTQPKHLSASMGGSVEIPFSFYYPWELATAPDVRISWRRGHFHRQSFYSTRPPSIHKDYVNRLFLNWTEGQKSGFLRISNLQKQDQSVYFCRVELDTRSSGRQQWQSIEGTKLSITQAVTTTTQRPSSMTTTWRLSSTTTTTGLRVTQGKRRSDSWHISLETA
- protocol.summary: SPR, Carterra LSA, antibody amine-coupled, kinetic fit
Hi there, I'd appreciate the recorded Kd for every entry that follows.
Numbers only, in nM.

binder	unit.annotation	Kd
X10 (antibody, human IgG4, V domains shown) VH: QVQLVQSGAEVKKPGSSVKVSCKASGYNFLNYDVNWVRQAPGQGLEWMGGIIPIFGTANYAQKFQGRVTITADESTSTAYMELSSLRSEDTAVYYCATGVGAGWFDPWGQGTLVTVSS VL: DIVMTQSPDSLAVSLGERATINCKSSQSVFFDENNKNYLAWYQQKPGQPPKLLIYWASTRESGVPDRFSGSGSGTDFTLTISSLQAEDVAVYYCQQYYEEPYTFGQGTRLEIK	nM	3.2
X20 (antibody, human IgG4, V domains shown, conditioned media in the HEK293F assays) VH: QVQLVQSGAEVKKPGSSVKVSCKASGYNFLHYDVNWVRQAPGQGLEWMGGIIPIFGTANYAQKFQGRVTITADESTSTAYMELSSLRSEDTAVYYCATAVGAGWFDPWGQGTLVTVSS VL: DIVMTQSPDSLAVSLGERATINCKSSQSVYFSENNKNYLAWYQQKPGQPPKLLIYWASTRESGVPDRFSGSGSGTDFTLTISSLQAEDVAVYYCQQYYEEPYTFGQGTRLEIK	nM	0.5
X16 (antibody, human IgG4, V domains shown, conditioned media in the HEK293F assays) VH: QVQLVQSGAEVKKPGSSVKVSCKASGYNFLHYDVNWVRQAPGQGLEWMGGIIPIFGTANYAQKFQGRVTITADESTSTAYMELSSLRSEDTAVYYCATAVGAGWFDTWGQGTLVTVSS VL: DIVMTQSPDSLAVSLGERATINCKSSQSVYFDVNNKNYLAWYQQKPGQPPKLLIYWASTRESGVPDRFSGSGSGTDFTLTISSLQAEDVAVYYCQQYFEEPYTFGQGTRLEIK	nM	0.5
X9 (antibody, human IgG4, V domains shown) VH: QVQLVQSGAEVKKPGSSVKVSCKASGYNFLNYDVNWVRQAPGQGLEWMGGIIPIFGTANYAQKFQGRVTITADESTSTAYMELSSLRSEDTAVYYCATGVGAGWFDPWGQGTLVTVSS VL: DIVMTQSPDSLAVSLGERATINCKSSQSVFFDVNNKNYLAWYQQKPGQPPKLLIYWASTRESGVPDRFSGSGSGTDFTLTISSLQAEDVAVYYCQQYYEEPYTFGQGTRLEIK	nM	2.8

Continue with the next binder.
**Query** Report Kd for X30 (antibody, human IgG4, V domains shown) VH: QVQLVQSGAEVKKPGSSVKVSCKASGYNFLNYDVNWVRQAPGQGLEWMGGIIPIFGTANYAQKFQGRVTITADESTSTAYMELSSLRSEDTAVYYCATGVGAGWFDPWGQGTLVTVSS VL: DIVMTQSPDSLAVSLGERATINCKSSQSVYFDVNNKNYLAWYQQKPGQPPKLLIYWASTRESGVPDRFSGSGSGTDFTLTISSLQAEDVAVYYCQQYYEEPYTFGQGTRLEIK please.
**Result** 3.3
